Origin of the recorded values: patent US20200353078A1

Biological target: T1, Human IL-33 (Axxora/Adipogen AG-40B-0038) (human, UniProt O95760 112-270, limits assumed)
T1 sequence (looked up): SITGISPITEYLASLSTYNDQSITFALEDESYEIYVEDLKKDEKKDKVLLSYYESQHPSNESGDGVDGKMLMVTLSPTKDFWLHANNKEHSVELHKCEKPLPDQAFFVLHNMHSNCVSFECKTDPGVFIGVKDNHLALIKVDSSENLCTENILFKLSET
Experiment: cell-based or functional assay
parameter: IC50, Mast cell IL-6 production

In the examples that follow, each entry is paired with its recorded IC50, Mast cell IL-6 production.
>>> assay_value("IL330396_fgl IgG1 (antibody, V domains shown) VH: EVQLLESGGGLVQPGGSLRLSCAASGFTFSSYAMSWVRQAPGKGLEWVSASTPWQGSTYYADSVKGRFTISRDNSKNTLYLQMNSLRAEDTAVYYCVRWYWGWIDSWGRGTLVTVSS VL: SYELMQPPSVSVSPGQTARITCSGDALPKQYAHWYQQKPGQAPVLVIYKDTERPSGIPERFSGSSSGTTVTLTISGVQAEDEADYYCMSSDDTGASRVFGGGTKLTVL")
"1.5 nM"
>>> assay_value("IL330398_fgl IgG1 (antibody, V domains shown) VH: EVQLLESGGGLVQPGGSLRLSCAASGFTFSSYAMSWVRQAPGKGLEWVSASTPWQGSTYYADSVKGRFTISRDNSKNTLYLQMNSLRAEDTAVYYCVRWYWGWIDSWGRGTLVTVSS VL: SYELMQPPSVSVSPGQTARITCSGDALPKQYAHWYQQKPGQAPVLVIYKDTERPSGIPERFSGSSSGTTVTLTISGVQAEDEADYYCLSSDASGASRVFGGGTKLTVL")
"0.9 nM"

Now take the following binder into account.
I am curious: what IC50, Mast cell IL-6 production value has been reported for IL330101 IgG (antibody, V domains shown, IgG1 or IgG1-TM; also called mAb IL330101; IL3300101) VH: EVQLLESGGGLVQPGGSLRLSCAASGFTFSSYAMSWVRQAPGKGLEWVSAISGSGGSTYYADSVKGRFTISRDNSKNTLYLQMNSLRAEDTAVYYCVRVVAGYFDSWGRGTLVTVSS VL: SYVLTQPPSVSVSPGQTARITCSGDALPKQYAHWYQQKPGQAPALVIYKDTERPSGIPERFSGSSSGTTVTLTISGVQAEDEADYYCQSADSSGASRVFGGGTKVTVL ?
93 nM
